- TARGET_SYSTEM: Short transient receptor potential channel 6 (Mus musculus)
- MEASUREMENT_NOTES: blockers of TRPC6 cation channel activity – HEK293 cells, membrane potential dye, duplicate, confirmation (AID 488960)
- CONDITIONS: ACh-evoked depolarization, at 10 µM
This is one part of the list. Calls of active or inactive are those of the source.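 Rule for the calls: active = fluorescence ratio falls more than 5 SD below the full-stimulation control mean, in both duplicate runs; inactive = the rest.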
Your answer must be one of the following: 1 = active, 0 = inactive

# example entries with known answers
{"columns": ["COMPOUND", "QUALITATIVE_LABEL"],
 "data": [
  ["Cc1nnc(SCc2ccc(C(=O)c3ccc(Cl)cc3)o2)n1-c1ccccc1", 1],
  ["Cc1cc2oc3ccc(NCCC4CCCN4C)cc3c(=O)c2cc1C (centres undefined)", 0],
  ["CC(NCc1ccccc1OC1CCCC1)c1ccccc1 (centres undefined)", 1]
]}

Enquiry: What classification did N=c1c2c(-c3ccccc3)c(-c3ccccc3)n(Cc3ccccc3)c2ncn1CCCO end up with in this test?
Return: 0
